# measurementTarget: Human DR5-ECD long form polypeptide (human)
# test: phage competition ELISA (Comp/DR5 ECD)
Record form. Attribute: IC50. Fill in for each entry.

binder: EVCMTSCEKLMSAL (phage-displayed) [LB845]
valueMeasured: 39.2 nM
//
binder: GRVCLTLCSKLR (phage-displayed) [LB954]
valueMeasured: 23.5 nM
//
binder: GEVCLTLCSRLT (displayed on phage) [LB953]
valueMeasured: 23.5 nM

Shift focus to the following entry.
Query: I would be grateful if you could share the reported IC50 for EVCMTSCEKLMS (displayed on phage) [LB847] .
Reply: 735 nM
